experimental-target: bovine Estrogen Receptor (ER), ESR1 (gene 407238)
experimental-details: NVS_NR_bER: NovaScreen (NVS) Nuclear Receptor Binding Assay for bovine Estrogen Receptor (ER) (AID 2283345);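 further: actives lower the bound radioligand count which means they displace the ER ligand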
Results filed as inconclusive are left out. Activity calls are given as the source filed them. How the source made its calls: active means hit-call score of the fitted dose curve at least 0.9, where 1 is the maximum; inconclusive means response in the unintended direction; inactive means score below 0.9.
Can you answer with just one of these options? active, inactive

# example entries with known answers
{"compound": "CC(Cl)(Cl)C(=O)O", "class-label": "inactive"}
{"compound": "CCCCN(CCCC)SN(C)C(=O)Oc1cccc2c1OC(C)(C)C2", "class-label": "inactive"}
{"compound": "c1nc[nH]n1", "class-label": "inactive"}

## Input Lab log entry: `C=CC(=O)OCC(CC)(COC(=O)C=C)COC(=O)C=C` — outcome as called in the assay?
## Output active

## Input // same read-out, input: `Cc1ccc2c(c1N)C(=O)c1ccccc1C2=O`
## Output inactive

## Input // same read-out, input: ClC1=C(Cl)C2(Cl)C3C(Cl)C(Cl)CC3C1(Cl)C2(Cl)Cl (stereo not drawn)
## Output inactive

## Input // same read-out, input: `CCNc1nc(Cl)nc(NC(C)(C)C)n1`
## Output inactive
